Below, each entry is listed alongside its reported Percent Effect.
# testSystem: Protein translocase subunit SecA (Escherichia coli (strain K12))
# testMethodNotes: Assay to Identify E. coli SecA ATPase Inhibitors
# Assay type: functional
# Set-up: scale not given: direction of the effect not stated beside the values
# assayContext: 30 µM
Potency and affinity values are given separately.
Quick reminder: number only, in %, skip the unit.

Some solved entries appear below for comparison.
>>> df
                                   compound                                testsystem  obsvalue
0  Cc1nn(C)c2cn(C(C)C(=O)NCc3cccnc3)nc12 (configuration not stated)  Protein translocase subunit SecA (Escherichia coli (strain K12))     -2.07
1  CCc1noc(C(C)N(C)CC(=O)Nc2c(C)cccc2C)n1 (configuration not stated)  Protein translocase subunit SecA (Escherichia coli (strain K12))      1.06
2  COc1cc2nc(C)n(CC(=O)NCCCN(C)C)c(=O)c2cc1OC  Protein translocase subunit SecA (Escherichia coli (strain K12))    -0.823
3  CS(=O)(=O)c1ccccc1C(=O)NCCCN1CCc2ccccc2C1  Protein translocase subunit SecA (Escherichia coli (strain K12))     -5.27
4  O=C(O)c1cc(NS(=O)(=O)c2cccc(Cl)c2F)ccc1Cl  Protein translocase subunit SecA (Escherichia coli (strain K12))     -7.65
5  c1ccc(N2CCOC3(CCCN(c4nncs4)C3)C2)nc1 (configuration not stated)  Protein translocase subunit SecA (Escherichia coli (strain K12))     -3.17
6  O=C1NC2(CCN(Cc3nccs3)CC2)CC1c1ccncc1 (configuration not stated)  Protein translocase subunit SecA (Escherichia coli (strain K12))     -7.46
7  OCC1CCCN1c1cc(N2CCN(c3ccccn3)CC2)ncn1 (configuration not stated)  Protein translocase subunit SecA (Escherichia coli (strain K12))     -1.51
8  CC(Cn1cccn1)NC(=O)CCc1ccc(S(N)(=O)=O)cc1 (configuration not stated)  Protein translocase subunit SecA (Escherichia coli (strain K12))     -7.11
9    CC(C)n1ccnc1CN1CCCN(C(=O)c2cccnc2O)CC1  Protein translocase subunit SecA (Escherichia coli (strain K12))     -4.65

Suppose we examine the compound O=C1COc2ccc(C(=O)NS(=O)(=O)c3ccc(F)cc3F)cc2N1 ; what Percent Effect value has been reported?
-2.51

Endpoint output: Percent Effect of Cc1csc([C@@H]2C[C@@H]3CCN(Cc4cnn(C)c4)C[C@H]3O2)n1 . Value?
-5.44

Query (compound): CCN1CCC2(CC1)CC(NC(=O)N(C)C)c1cc(C)ccc12 (configuration not stated) ; field requested: Percent Effect
-2.37

Endpoint output: Percent Effect of Cc1nc(C)n(CC2CCCCN2CC(=O)NC2CCOCC2)n1 (configuration not stated) . Value?
-5.64

Need Percent Effect, item CCc1ncc2c(n1)CN(Cc1nc(-c3ccsc3)no1)CC2
-3.47

Any idea what its Percent Effect is? The compound is O=S(=O)(CCCN1CCCC1Cn1cncn1)c1ccccc1 (configuration not stated)
1.87

# query: Percent Effect of entry Cc1cnc(C(=O)N(CCN(C)C)Cc2ccc(Cl)cc2)cn1
-0.752

I have this compound here, CCN1CCCC1CN(CCN(C)C)S(=O)(=O)c1ccc(C#N)cc1 (configuration not stated) , and I need its recorded Percent Effect.
-3.88

Percent Effect lookup needed for Cc1nc([C@@H]2C[C@@H]3CCN(C(=O)c4ccnnc4)C[C@H]3O2)sc1C , thanks.
-3.66

Please look up its Percent Effect: COc1cc(NC(=O)Cn2ccc3sc(C)cc3c2=O)cc(OC)c1
0.749

Could you share which Percent Effect value was measured for CCc1cccc(N2CCC(NC(=O)c3ccc(=O)[nH]n3)CC2)c1 ?
-0.605

Given the compound Cc1nc([C@@H]2C[C@@H]3CCN(C(=O)Cc4ccsc4)C[C@H]3O2)no1 , what is its reported Percent Effect?
-3.1

So what does the record say about Percent Effect for O=C(c1ccc[nH]1)N1CCCC(c2cc(C(F)(F)F)[nH]n2)C1 (configuration not stated) ?
-5.38

I would be grateful if you could share the reported Percent Effect for Cc1n[nH]c(C)c1NC(=O)CN1CCn2c(nnc2C(C)C)C1 .
-0.613

Could you share which Percent Effect value was measured for Cc1cc(=O)[nH]c(SCC(=O)N(C)CC2Cc3ccccc3CN2C)n1 (configuration not stated) ?
-6.85

Percent Effect lookup needed for COc1ccc(F)cc1S(=O)(=O)NCC(c1cccn1C)N(C)C (configuration not stated) , thanks.
-3.57

Tell me the measured Percent Effect of COc1ccnc(C(=O)N2CCCC(c3noc(C)n3)C2)c1 (configuration not stated) , please.
-0.16

Entry COc1ncc(C2(O)CCN(Cc3cccs3)CC2)c(OC)n1 has what Percent Effect?
-5.49

Query: Percent Effect; subject: CCC(C)N(C)S(=O)(=O)c1ccc(CCNC(C)=O)s1 (configuration not stated)
-1.87

Given the compound Fc1ccc(OCc2noc(CN3CCc4cncnc4C3)n2)cc1 , what is its reported Percent Effect?
-0.114

Which Percent Effect value is on record for Cc1c(C(=O)NCC2CCCO2)nnn1-c1cccc2c1CCN(C)C2 (configuration not stated) ?
-7.71

I'd like to know its Percent Effect. The compound in question is O=C(CSC1CCc2ccccc2NC1=O)NCCO (configuration not stated)
-0.348

# Percent Effect lookup, item COc1cc(C)nc(N2CCN(C(=O)CNC(C)(C)C)CC2)n1
-1.19

Would you mind telling me what Percent Effect value was observed for O=C(c1ccc(F)cc1F)N1CC[C@H](O)[C@@H](N2CCOCC2)CC1 ?
-1.33

What value of measured Percent Effect is listed for COCCN1CC(C(=O)NCc2ccnc(-n3cccn3)c2)CC1=O (configuration not stated) ?
-3.79

Param item = CN(C)c1ccc(CN(CCCn2ccnc2)Cc2c[nH]cn2)cc1 ; retrieve measured Percent Effect.
-6.31

###

# key: entry, value: Percent Effect
# testSystem: Arginase-2, mitochondrial (Homo sapiens)
# Sequence (whole entry): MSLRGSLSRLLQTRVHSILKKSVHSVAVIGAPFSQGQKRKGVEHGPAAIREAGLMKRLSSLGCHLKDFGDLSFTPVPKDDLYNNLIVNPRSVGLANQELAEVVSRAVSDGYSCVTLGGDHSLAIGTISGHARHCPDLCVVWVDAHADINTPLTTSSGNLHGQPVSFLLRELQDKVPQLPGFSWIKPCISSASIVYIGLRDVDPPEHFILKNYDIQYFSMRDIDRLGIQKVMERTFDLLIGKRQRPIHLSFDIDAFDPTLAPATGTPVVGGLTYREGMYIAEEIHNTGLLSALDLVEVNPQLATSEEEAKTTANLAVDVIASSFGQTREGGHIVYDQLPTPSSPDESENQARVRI
# testMethodNotes: in vitro enzyme assay to detect the production of urea directly proportional to the activity of Arginase II; further: in the data most compounds retested in dose-response had high values
# Format: functional
# Set-up: scale not given: direction of the effect not stated beside the values
# assayContext: 33.3 µM
The figure you give is taken to be in %; do not add the unit.

Find the recorded Percent Effect belonging to COCCN(Cc1ccc(F)cc1Cl)C(=O)c1cccc[n+]1[O-] and report it.
6.18

###

# testSystem: Protein translocase subunit SecA (Escherichia coli (strain K12))
# testMethodNotes: Assay to Identify E. coli SecA ATPase Inhibitors
# Format: functional
# Parameters: scale not given: direction of the effect not stated beside the values
# assayContext: 30 µM
Results with a measured potency or affinity are listed apart.
Consider the following molecules and their measured Percent Effect readings.
Report as a plain number; the unit % is understood.

In [3]: df
Out[3]:
                                   molecule  unitofmeasurement  obsvalue
0  Cc1noc(CN2CCOC(CN(C)C)C2)n1 (stereo unspecified)                  %     -2.18
1  CC(Oc1ccccc1C(F)(F)F)C(=O)NS(=O)(=O)C(C)C (stereo unspecified)                  %      7.54
2          CC1CCN(CCNC(=O)c2cncnc2C(C)C)CC1                  %     0.314

Which Percent Effect reading was recorded for the molecule COc1cc(CNCc2ccnc(N3CCOCC3)c2)cc(Cl)c1OC ?
-5.46

Name the recorded Percent Effect for Cc1cc(C)c(CNC(=O)NCC(O)COc2ccccc2)c(=O)[nH]1 (stereo unspecified) .
-9.63

###

# testSystem: Tyrosyl-tRNA synthetase, putative (Trypanosoma cruzi (strain CL Brener))
# Sequence (whole entry): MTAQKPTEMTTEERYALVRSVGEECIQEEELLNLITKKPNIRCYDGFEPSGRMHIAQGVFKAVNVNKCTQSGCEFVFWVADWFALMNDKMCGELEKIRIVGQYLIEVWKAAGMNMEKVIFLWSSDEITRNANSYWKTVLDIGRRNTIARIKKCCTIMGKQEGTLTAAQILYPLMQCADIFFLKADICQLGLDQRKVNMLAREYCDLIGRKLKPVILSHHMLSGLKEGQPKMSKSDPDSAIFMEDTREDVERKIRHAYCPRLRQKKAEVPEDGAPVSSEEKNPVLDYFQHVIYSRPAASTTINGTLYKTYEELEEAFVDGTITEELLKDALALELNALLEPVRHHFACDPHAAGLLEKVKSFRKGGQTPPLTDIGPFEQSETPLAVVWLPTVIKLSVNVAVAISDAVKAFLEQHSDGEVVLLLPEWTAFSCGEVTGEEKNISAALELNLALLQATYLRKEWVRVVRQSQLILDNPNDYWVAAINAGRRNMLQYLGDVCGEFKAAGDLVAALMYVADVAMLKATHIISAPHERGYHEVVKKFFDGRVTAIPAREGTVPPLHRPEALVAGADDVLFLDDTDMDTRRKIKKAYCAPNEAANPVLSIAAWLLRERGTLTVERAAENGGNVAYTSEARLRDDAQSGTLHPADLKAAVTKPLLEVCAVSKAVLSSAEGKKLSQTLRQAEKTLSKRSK
# testMethodNotes: Trypanosoma cruzi tyrosyl tRNA synthetase (TcYRS) _High Tyrosine SOP; further: in the data most compounds retested in dose-response had high values
# Format: functional
# Parameters: scale not given: direction of the effect not stated beside the values
# assayContext: 30 µM
reportedMetric: Percent Effect (%)
Kindly answer with a numeric value in %, unit omitted.

// worked examples, Percent Effect included
                                   molecule  reportedmetric  unitofmeasurement  obsvalue
0  O=C(Nc1cccc(N2CCCC2)c1)C1CCCN1c1nccs1 (stereo not given)  Percent Effect                  %      8.13
1    CN(C)CCN1CCC2(CC1)CN(c1cccnc1)C(=O)CO2  Percent Effect                  %      4.32
2  FC(F)(F)Cn1ccnc1CN1CCOC(Cn2cccn2)C1 (stereo not given)  Percent Effect                  %      1.04

Could you share which Percent Effect value was measured for CC(C)c1ccc(-c2nnn(CCNS(C)(=O)=O)n2)cc1 ?
-4.17

Recorded Percent Effect for CC(O)CC(C)(C)CNC(=O)NCc1cccc(-n2ccnc2)c1 (stereo not given) , please?
-1.07

Please give the measured Percent Effect for this molecule: O=C(CSc1ncccn1)N1C[C@H]2CC[C@@H]1CN(Cc1ccncc1)C2
5.38

Any idea what its Percent Effect is? The molecule is O=C(c1cc2cc(F)ccc2[nH]1)N1CCC(Nc2cccnn2)CC1
0.98

Percent Effect lookup needed for COc1c(C2CCCN2Cc2c(C)noc2C)c(C)nn1C (stereo not given) , thanks.
0.526

Reported Percent Effect for c1cnnc(N2CCCC(NCc3nnc(-c4ccco4)o3)C2)c1 (stereo not given) : what is it?
9.09

Could you share which Percent Effect value was measured for CCn1ncc(Br)c1CN(C)S(=O)(=O)c1ccc(C)cc1 ?
4.23

// query Percent Effect value for entry CN(Cc1cnn(C)c1)C(=O)Cn1c(CS(C)(=O)=O)nc2ccccc21
5.32

If you can, please state the reported Percent Effect value of CSc1cccc(CNC(=O)C2CC(=O)N(CCN(C)C)C2)c1 (stereo not given) .
4.92

Any idea what Percent Effect was measured for CC(C)Nc1ccc2nc(C3CCN(C(C)C)CC3)nn2c1 ?
10.9

# Percent Effect lookup, item Cc1nn(C)c2cn(C(C)C(=O)NCc3cccnc3)nc12 (stereo not given)
-4.23

Quick one: Percent Effect of COCC(=O)N1CC[C@@H](O)[C@@H]1Cc1ccccc1 ?
-5.79

Attribution: ChEMBL document CHEMBL3988442
